Would you mind telling me the reported OD 492 nm of each entry?
molecular target: recombinant HA, subtype H5 (A/Vietnam/1203/2004 (H5N1)) (influenza A virus A/Vietnam/1203/2004 …, UniProt Q80A26 6-554); experiment: ELISA, coated HA, IgG 5 µg/ml
Give bare numbers, in OD 492 nm.

Look over these answered cases.
1. CR6262 (antibody, V domains shown) VH: QVQLQQSGAEVKKPGSSVKVSCKVSGVIFSGSAISWVRQAPGQGLEWMGGISPLFGTTNYAQKFQGRVTITADQSTNTTYMEVNSLRYEDTAVYFCARGPKYYSEYMDVWGKGTTVTVSS VL: DIQMTQSPSSLSASVGDRVTITCRASQGISSYLAWYQQKPGKVPTLLIYDASTLRSGVPSRFSGSGSATDFTLTISSLQPEDVATYYCQRYNSAPPITFGQGTRLEIKR = 1.02
2. CR6272 (antibody, V domains shown) VH: QMQLVQSGAEVKKPGSSVKVSCKASGGTFSSYAITWVRQAPGQGLEWMGGIIGMFGSTNYAQNFQGRVTITADESTSTAYMELSSLRSEDTAVYYCARSTGYYPAYLHHWGQGTLVTVSS VL: QSALTQPRSVSGSPGQSVTISCTGTSSDVGGYNYVSWYQQHPGKAPKLMIYDVSKRPSGVPDRFSGSKSGNTASLTISGLQAEDEADYYCSSYTSSSTHVFGTGTKVTVLG = 0.58
3. CR6255 (antibody, V domains shown) VH: EVQLVESGAEVKKPGSSVKVSCKASGGPFRSYAISWVRQAPGQGPEWMGGIIPIFGTTKYAPKFQGRVTITADDFAGTVYMELSSLRSEDTAMYYCAKHMGYQVRETMDVWGKGTTVTVSS VL: SYVLTQPPSASGTPGQRVTISCSGSTFNIGSNAVDWYRQLPGTAPKLLIYSNNQRPSGVPDRFSGSRSGTSASLAISGLQSEDEADYYCAAWDDILNVPVFGGGTKLTVLG = 1.44
4. CR6336 (antibody, V domains shown) VH: QMQLVQSGAEVKKPGSSVKVSCKASGGTFSSYAISWVRQAPGQGLEWMGGIFGMFGTANYAQKFQGRVTITADEFTSAAYMELSSLGSEDTAMYYCARSSGYYPQYFQDWGQGTLVTVSS VL: EIVMTQSPGTLSLSPGQRATLSCRASQSVSSSYLAWYQQKPGQAPRLLMYGASSRATGIPDRFSGSGSGTDFTLTISRLEPEDFAVYYCQQYGSSSLTFGGGTKLEIKR = 1.41
5. CR6327 (antibody, V domains shown) VH: EVQLVETGAEVKKPGSSVKVSCKASGGTFRTHAISWVRQAPGQGLEWMGGIIAIFGTANYAQKFQGRITITADESTSTAYMELSSLRSEDTAVYFCARGSGYHISTPFDNWGQGTLVTVSS VL: SYVLTQPPSVSVAPGQTARITCGGNNIGSKGVHWYQQKPGQAPVLVVYDDSDRPSGIPERFSGSNSGNTATLTISRVEAGDEADYYCQVWDSSSDHVVFGGGTKLTVLG = 1.11

For every item below, please supply its OD 492 nm.
1. CR6331 (antibody, V domains shown) VH: EVQLVESGAEVKKPGSSVKVSCKASGGTFSSYAISWVRQAPGQGLEWMGGIIGMFGTANYAQKFQGRVTITADEFTSTAYMELSSLRSEDTAVYYCARGNYYYESSLDYWGQGTLVTVSS VL: QSVVTQPPSVSVAPGQTARITCGGNNIGSKSVHWYQQKPGQAPVLVVYDDSDRPSGIPERFSGSNSGNTATLTISRVEAGDEADYYCQVWDSSSDHYVFGTGTKVTVLG
2. CR6339 (antibody, V domains shown) VH: EVQLVESGAEVKKPGSSVKVSCKASGGIFNSYAISWVRQAPGQGLEWMGGIIAIFHTPKYAQKFQGRVTITADESTNTAYMELRSLKSEDTALYYCARGSTYDFSSGLDYWGQGTLVTVSS VL: QAGLTQPPSVSVAPGQTARITCGGNNIGSKSVHWYQQKPGQAPVLVVYDDSDRPSGIPERFSGSNSGNTATLTISRVEAGDEADYYCQVWDSSSDHVVFGGGTKLTVLG
3. CR6344 (antibody, V domains shown) VH: QVQLVQSGAEVKKPGSSVRVSCKASGSIFRNYAMSWVRQAPGQGLEWMGGIIAIFGTPKYAQKFQGRVTITADESTSTVYMELSGLRSEDTAMYYCARIPHYNFGSGSYFDYWGQGTLVTVSS VL: TVLTQPPSVSGAPGQRVTISCTGSSSNIGAGYDVHWYQQLPGTAPKLLIYGNSNRPSGVPDRFSGSKSGTSATLGITGLQTGDEADYYCGTWDSSLSAYVFGTGTKVTVLG

Given back:
1: 1.32; 2: 0.81; 3: 1.31

For every item below, please supply its OD 492 nm.
1. CR6268 (antibody, V domains shown) VH: QVQLVQSGAEVKKPGSSVKVSCKASGGTFSSYAISWVRQAPGQGLEWMGGIMGMFGTTNYAQKFQGRVTITADEFTSAAYMELRSLRSEDTAVYYCARSSGYYPEYFQDWGQGTLVTVSS VL: QSVLTQPPSESVSPGQTASVTCSGHKLGDKYVSWYQQKPGQSPVLLIYQDNRRPSGIPERFIGSNSGNTATLTISGTQALDEADYYCQAWDSSTAVFGGGTKLTVLG
2. CR6307 (antibody, V domains shown) VH: QVQLVQSGGGLVKPGGSLRLSCAASGFTFSSYSMNWVRQAPGKGLEWVSSISSSSSYIYYVDSVKGRFTISRDNAKNSLYLQMNSLRAEDTAVYYCARGGGSYGAYEGFDYWGQGTLVTVSS VL: EIVLTQSPGTLSLSPGERATLSCRASQRVSSYLAWYQQKPGQAPRLLIYGASTRAAGIPDRFSGSGSGTDFTLTISRLEPEDSAVYYCQQYGRTPLTFGGGTKVEIKR

Given back:
1: 1.3; 2: 0.99
